Measured GI50 on SK-OV-3 follows.
assay-metric: GI50

compound: Cc1ccc(C2CC(c3ccc(S(=O)(=O)NCCNc4nc(Nc5ccc(F)cc5)nc(N(C)C)n4)cc3)=Nc3c(N)nc(N)nc3N2)cc1 (stereo not drawn) [31b]
assay-target: SK-OV-3
readout-value: > 100 µM
--
compound: COc1cc(C2CC(c3ccc(Cl)cc3)=Nc3c(N)nc(N)nc3N2)ccc1Oc1nc(Nc2ccc(F)cc2)nc(N(C)C)n1 (stereo not drawn) [29e]
assay-target: SK-OV-3
readout-value: > 100 µM
--
compound: CN(C)c1nc(NCCNS(=O)(=O)c2ccc(C3=Nc4c(N)nc(N)nc4NC(c4ccc(Cl)cc4)C3)cc2)nc(Nc2ccc(F)cc2)n1 (stereo not drawn) [31e]
assay-target: SK-OV-3
readout-value: > 100 µM

---

# CC50 annotations
- Tested on: OVCAR-8
- protocol-notes: cells
- condition-context: Homo sapiens, OVCAR-8, 48 h, read-out: LC50

molecule: COc1ccc(/C=C/C(=O)c2ccc(S(=O)(=O)NCCNc3nc(Nc4ccc(F)cc4)nc(N(C)C)n3)cc2)cc1 [24c]
CC50: > 100 µM
//
molecule: COc1cc(/C=C/C(=O)c2ccc(C)cc2)ccc1Oc1nc(Nc2ccc(F)cc2)nc(N(C)C)n1 [21b]
CC50: > 100 µM
//
molecule: COc1cc(C2CC(c3ccc(Cl)cc3)=Nc3c(N)nc(N)nc3N2)ccc1Oc1nc(Nc2ccc(F)cc2)nc(N(C)C)n1 (stereo not drawn) [29e]
CC50: > 100 µM

---

- System: NCI-H460
- protocol-notes: cells
- condition-context: Homo sapiens, NCI-H460, 48 h
# GI50 annotations

molecule: CN(C)c1nc(NCCNS(=O)(=O)c2ccc(C(=O)/C=C/c3ccc(F)cc3)cc2)nc(Nc2ccc(F)cc2)n1 [24f]
assay-target: NCI-H460
GI50: 2.45 µM
--
molecule: CN(C)c1nc(NCCNS(=O)(=O)c2ccc(C(=O)/C=C/c3ccc(F)cc3)cc2)nc(N2CCOCC2)n1 [23f]
assay-target: NCI-H460
GI50: 15.7 µM
--
molecule: CN(C)c1nc(NCCNS(=O)(=O)c2ccc(C3=Nc4c(N)nc(N)nc4NC(c4ccc(Cl)cc4)C3)cc2)nc(Nc2ccc(F)cc2)n1 (stereo not drawn) [31e]
assay-target: NCI-H460
GI50: 4.49 µM

---

# CC50 annotations
- Test system: COLO 205
- protocol-notes: cells
- condition-context: Homo sapiens, COLO 205, 48 h, read-out: LC50

compound: COc1cc(/C=C/C(=O)c2ccc(C)cc2)ccc1Oc1nc(Nc2ccc(F)cc2)nc(N(C)C)n1 [21b]
assay-target: COLO 205
measurement-qualifier: >
CC50 [µM]: 100
--
compound: CN(C)c1nc(NCCNS(=O)(=O)c2ccc(C3=Nc4c(N)nc(N)nc4NC(c4ccccc4)C3)cc2)nc(Nc2ccc(F)cc2)n1 (centres unmarked) [31a]
assay-target: COLO 205
measurement-qualifier: >
CC50 [µM]: 100
--
compound: COc1cc(C2CC(c3ccc(Cl)cc3)=Nc3c(N)nc(N)nc3N2)ccc1Oc1nc(Nc2ccc(F)cc2)nc(N(C)C)n1 (centres unmarked) [29e]
assay-target: COLO 205
measurement-qualifier: >
CC50 [µM]: 100
--
compound: Cc1ccc(C2CC(c3ccc(S(=O)(=O)NCCNc4nc(Nc5ccc(F)cc5)nc(N(C)C)n4)cc3)=Nc3c(N)nc(N)nc3N2)cc1 (centres unmarked) [31b]
assay-target: COLO 205
measurement-qualifier: >
CC50 [µM]: 100
--
compound: CN(C)c1nc(NCCNS(=O)(=O)c2ccc(C3=Nc4c(N)nc(N)nc4NC(c4ccc(F)cc4)C3)cc2)nc(Nc2ccc(F)cc2)n1 (centres unmarked) [31f]
assay-target: COLO 205
measurement-qualifier: >
CC50 [µM]: 100
--
compound: COc1cc(/C=C/C(=O)c2ccc(C)cc2)ccc1Oc1nc(NCCO)nc(N2CCOCC2)n1 [20b]
assay-target: COLO 205
measurement-qualifier: >
CC50 [µM]: 100
--
compound: COc1cc(/C=C/C(=O)c2ccccc2)ccc1Oc1nc(Nc2ccc(F)cc2)nc(N(C)C)n1 [21a]
assay-target: COLO 205
measurement-qualifier: >
CC50 [µM]: 100
--
compound: COc1cc(/C=C/C(=O)c2ccc(S(=O)(=O)NCCNc3nc(Nc4ccc(F)cc4)nc(N(C)C)n3)cc2)cc(OC)c1OC [24d]
assay-target: COLO 205
measurement-qualifier: =
CC50 [µM]: 86.1
--
compound: Nc1nc(N)c2c(n1)NC(c1ccc(Cl)cc1)CC(c1ccc(Nc3nc(NCCO)nc(Nc4ccc(Cl)cc4)n3)cc1)=N2 (centres unmarked) [33e]
assay-target: COLO 205
measurement-qualifier: =
CC50 [µM]: 8.55
--
compound: CN(C)c1nc(NCCNS(=O)(=O)c2ccc(C(=O)/C=C/c3ccc(Cl)cc3)cc2)nc(Nc2ccc(F)cc2)n1 [24e]
assay-target: COLO 205
measurement-qualifier: =
CC50 [µM]: 18.7
--
compound: CN(C)c1nc(NCCNS(=O)(=O)c2ccc(C(=O)/C=C/c3ccc(C(F)(F)F)cc3)cc2)nc(Nc2ccc(F)cc2)n1 [24g]
assay-target: COLO 205
measurement-qualifier: =
CC50 [µM]: 24.8
--
compound: CN(C)c1nc(NCCNS(=O)(=O)c2ccc(C(=O)/C=C/c3ccc(F)cc3)cc2)nc(N2CCOCC2)n1 [23f]
assay-target: COLO 205
measurement-qualifier: =
CC50 [µM]: 62.4
--
compound: CN(C)c1nc(NCCNS(=O)(=O)c2ccc(C(=O)/C=C/c3ccc(C(F)(F)F)cc3)cc2)nc(N2CCOCC2)n1 [23g]
assay-target: COLO 205
measurement-qualifier: =
CC50 [µM]: 69.8
--
compound: CN(C)c1nc(NCCNS(=O)(=O)c2ccc(C3=Nc4c(N)nc(N)nc4NC(c4ccc(C(F)(F)F)cc4)C3)cc2)nc(Nc2ccc(F)cc2)n1 (centres unmarked) [31g]
assay-target: COLO 205
measurement-qualifier: =
CC50 [µM]: 21.8

Every entry's value here was drawn from paper PMC11012124.
